biological target: PI3Kβ (Homo sapiens, UniProt P42338); assay: PI3Kβ kinase assay (ADP-Glo luminescent assay); type: biochemical; settings: ADP-Glo; mean ± SD from two separate experiments
Sequence (P42338 whole entry, one chain of several): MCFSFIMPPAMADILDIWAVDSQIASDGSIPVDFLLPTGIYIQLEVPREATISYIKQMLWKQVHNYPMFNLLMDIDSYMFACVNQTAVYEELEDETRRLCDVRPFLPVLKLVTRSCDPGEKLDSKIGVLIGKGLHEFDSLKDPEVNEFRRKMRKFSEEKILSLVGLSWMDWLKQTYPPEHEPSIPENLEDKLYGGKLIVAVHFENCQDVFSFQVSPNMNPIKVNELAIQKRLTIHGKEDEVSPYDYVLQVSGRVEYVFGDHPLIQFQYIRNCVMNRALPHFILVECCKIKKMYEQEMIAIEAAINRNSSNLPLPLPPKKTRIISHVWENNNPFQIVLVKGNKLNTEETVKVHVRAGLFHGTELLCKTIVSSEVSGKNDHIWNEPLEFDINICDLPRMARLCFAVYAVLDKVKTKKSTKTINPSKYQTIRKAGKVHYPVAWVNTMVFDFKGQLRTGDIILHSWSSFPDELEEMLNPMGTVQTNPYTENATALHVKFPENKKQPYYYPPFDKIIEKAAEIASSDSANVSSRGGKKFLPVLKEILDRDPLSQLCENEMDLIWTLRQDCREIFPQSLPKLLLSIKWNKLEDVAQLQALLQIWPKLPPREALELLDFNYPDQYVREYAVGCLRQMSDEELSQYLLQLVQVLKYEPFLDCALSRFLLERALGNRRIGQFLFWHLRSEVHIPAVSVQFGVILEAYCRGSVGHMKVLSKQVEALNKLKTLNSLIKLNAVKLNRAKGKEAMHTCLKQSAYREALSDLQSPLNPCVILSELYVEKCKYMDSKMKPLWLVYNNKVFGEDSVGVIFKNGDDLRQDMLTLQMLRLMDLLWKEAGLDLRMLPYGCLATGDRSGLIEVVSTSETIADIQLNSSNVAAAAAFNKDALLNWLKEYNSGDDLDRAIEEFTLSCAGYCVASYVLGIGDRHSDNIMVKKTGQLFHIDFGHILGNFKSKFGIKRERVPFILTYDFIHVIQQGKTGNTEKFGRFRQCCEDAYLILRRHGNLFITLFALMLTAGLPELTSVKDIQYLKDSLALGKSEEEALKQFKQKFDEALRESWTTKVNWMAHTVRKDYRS
Reported metric: pIC50
Give bare numbers, as −log10 of the molar value.

Cc1cccc(C)c1N1C(Cn2nc(-c3ccc4[nH]ccc4c3)c3c(N)ncnc32)=Nc2ccccc2S1(=O)=O [15a] = 4.51

Proceeding to the next molecule to report its pIC50.
Request: Look up pIC50: COc1ccc(-c2nn(CC3=Nc4ccccc4S(=O)(=O)N3c3c(C)cccc3C)c3ncnc(N)c23)cc1OC [15b]
Result: 4.62

----------
biological target: PI3Kα (Homo sapiens, UniProt P42336)
Sequence (P42336 whole entry): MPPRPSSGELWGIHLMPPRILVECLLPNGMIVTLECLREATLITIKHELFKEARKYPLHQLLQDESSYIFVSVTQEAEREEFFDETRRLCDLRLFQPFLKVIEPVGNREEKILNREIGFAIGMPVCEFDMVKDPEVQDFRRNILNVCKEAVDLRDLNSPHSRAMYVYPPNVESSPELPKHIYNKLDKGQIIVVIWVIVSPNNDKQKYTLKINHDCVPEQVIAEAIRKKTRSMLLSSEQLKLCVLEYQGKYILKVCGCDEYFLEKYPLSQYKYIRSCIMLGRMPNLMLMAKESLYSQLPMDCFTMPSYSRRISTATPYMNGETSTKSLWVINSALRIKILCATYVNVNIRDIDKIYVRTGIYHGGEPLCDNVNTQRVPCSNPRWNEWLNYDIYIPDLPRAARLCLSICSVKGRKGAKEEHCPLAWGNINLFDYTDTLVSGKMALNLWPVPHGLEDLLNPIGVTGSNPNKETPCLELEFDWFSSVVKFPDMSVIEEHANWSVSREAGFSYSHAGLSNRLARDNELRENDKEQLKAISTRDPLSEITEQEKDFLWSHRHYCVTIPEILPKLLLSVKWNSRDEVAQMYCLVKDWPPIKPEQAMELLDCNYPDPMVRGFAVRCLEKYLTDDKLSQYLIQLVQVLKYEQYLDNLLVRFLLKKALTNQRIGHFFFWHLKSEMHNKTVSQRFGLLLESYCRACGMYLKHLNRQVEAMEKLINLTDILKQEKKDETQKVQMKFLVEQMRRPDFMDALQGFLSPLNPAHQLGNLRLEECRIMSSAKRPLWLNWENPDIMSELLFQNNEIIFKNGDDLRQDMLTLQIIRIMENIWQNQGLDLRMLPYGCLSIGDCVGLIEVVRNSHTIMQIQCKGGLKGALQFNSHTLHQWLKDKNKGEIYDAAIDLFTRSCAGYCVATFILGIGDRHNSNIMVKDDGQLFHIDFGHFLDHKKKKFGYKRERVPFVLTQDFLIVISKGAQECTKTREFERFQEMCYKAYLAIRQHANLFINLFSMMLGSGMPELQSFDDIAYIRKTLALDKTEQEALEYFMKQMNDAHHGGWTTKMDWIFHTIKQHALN
Sequence (P27986 whole entry partner): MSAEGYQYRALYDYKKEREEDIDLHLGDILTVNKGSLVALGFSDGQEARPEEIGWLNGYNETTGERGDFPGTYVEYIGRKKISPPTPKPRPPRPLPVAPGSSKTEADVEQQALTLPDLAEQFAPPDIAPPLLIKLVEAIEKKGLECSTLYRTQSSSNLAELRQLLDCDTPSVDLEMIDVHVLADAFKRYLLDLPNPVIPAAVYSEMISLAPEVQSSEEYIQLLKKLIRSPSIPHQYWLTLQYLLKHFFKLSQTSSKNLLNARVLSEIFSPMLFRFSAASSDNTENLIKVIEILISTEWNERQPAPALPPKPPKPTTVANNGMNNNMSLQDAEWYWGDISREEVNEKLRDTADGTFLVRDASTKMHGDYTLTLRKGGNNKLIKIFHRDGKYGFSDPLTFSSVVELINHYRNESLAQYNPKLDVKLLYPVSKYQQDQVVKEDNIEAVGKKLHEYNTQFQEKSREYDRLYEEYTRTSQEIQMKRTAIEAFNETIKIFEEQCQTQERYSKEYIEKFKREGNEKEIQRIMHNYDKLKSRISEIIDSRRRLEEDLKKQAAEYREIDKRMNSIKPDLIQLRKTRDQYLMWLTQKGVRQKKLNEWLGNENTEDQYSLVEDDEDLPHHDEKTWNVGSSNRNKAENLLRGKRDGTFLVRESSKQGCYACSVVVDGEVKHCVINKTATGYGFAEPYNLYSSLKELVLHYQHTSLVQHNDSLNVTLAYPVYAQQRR
Reported metric: pIC50
One number for each entry, as −log10 of the molar value.

Request: GET /values?readout=pIC50&item= COc1ccc(-c2nn(CC3=Nc4ccccc4S(=O)(=O)N3c3c(C)cccc3C)c3ncnc(N)c23)cc1OC [15b]
Result: 4.79

----------
Answer each item with its documented melting point.

# annotated cases, reported melting point shown
Cc1cccc(C)c1N1C(Cn2nc(-c3ccc4[nH]ccc4c3)c3c(N)ncnc32)=Nc2ccc(F)cc2S1(=O)=O [16a] = 132 to 133 °C
Cc1cccc(C)c1N1C(Cn2nc(-c3ccc(OC(F)(F)F)cc3)c3c(N)ncnc32)=Nc2ccccc2S1(=O)=O [15i] = 206 to 207 °C
Cc1cccc(C)c1N1C(Cn2nc(-c3ccc4c(c3)OCO4)c3c(N)ncnc32)=Nc2ccccc2S1(=O)=O [15f] = > 250 °C

Here is another compound to look at.
Request: Which melting point is reported for this compound? COc1ccc(-c2nn(CC3=Nc4ccc(F)cc4S(=O)(=O)N3c3c(C)cccc3C)c3ncnc(N)c23)cc1F [16c]
Result: 201 to 202 °C

----------
Reported metric: melting point

COc1ccc(-c2nn(CC3=Nc4ccc(F)cc4S(=O)(=O)N3c3c(C)cccc3C)c3ncnc(N)c23)cc1OC [16b] = 229 to 230 °C

The following molecules each have a reported value; give each one's melting point.
1. Cc1cccc(C)c1N1C(Cn2nc(-c3ccc4c(c3)OCCO4)c3c(N)ncnc32)=Nc2ccccc2S1(=O)=O [15e]
2. COc1ccc(-c2nn(CC3=Nc4ccccc4S(=O)(=O)N3c3c(C)cccc3C)c3ncnc(N)c23)cc1OC [15b]

Result:
["225 to 226 °C", "220 to 222 °C"]

----------
target: PI3Kδ (Homo sapiens, UniProt O00329)
Sequence (O00329 whole entry, one chain of several): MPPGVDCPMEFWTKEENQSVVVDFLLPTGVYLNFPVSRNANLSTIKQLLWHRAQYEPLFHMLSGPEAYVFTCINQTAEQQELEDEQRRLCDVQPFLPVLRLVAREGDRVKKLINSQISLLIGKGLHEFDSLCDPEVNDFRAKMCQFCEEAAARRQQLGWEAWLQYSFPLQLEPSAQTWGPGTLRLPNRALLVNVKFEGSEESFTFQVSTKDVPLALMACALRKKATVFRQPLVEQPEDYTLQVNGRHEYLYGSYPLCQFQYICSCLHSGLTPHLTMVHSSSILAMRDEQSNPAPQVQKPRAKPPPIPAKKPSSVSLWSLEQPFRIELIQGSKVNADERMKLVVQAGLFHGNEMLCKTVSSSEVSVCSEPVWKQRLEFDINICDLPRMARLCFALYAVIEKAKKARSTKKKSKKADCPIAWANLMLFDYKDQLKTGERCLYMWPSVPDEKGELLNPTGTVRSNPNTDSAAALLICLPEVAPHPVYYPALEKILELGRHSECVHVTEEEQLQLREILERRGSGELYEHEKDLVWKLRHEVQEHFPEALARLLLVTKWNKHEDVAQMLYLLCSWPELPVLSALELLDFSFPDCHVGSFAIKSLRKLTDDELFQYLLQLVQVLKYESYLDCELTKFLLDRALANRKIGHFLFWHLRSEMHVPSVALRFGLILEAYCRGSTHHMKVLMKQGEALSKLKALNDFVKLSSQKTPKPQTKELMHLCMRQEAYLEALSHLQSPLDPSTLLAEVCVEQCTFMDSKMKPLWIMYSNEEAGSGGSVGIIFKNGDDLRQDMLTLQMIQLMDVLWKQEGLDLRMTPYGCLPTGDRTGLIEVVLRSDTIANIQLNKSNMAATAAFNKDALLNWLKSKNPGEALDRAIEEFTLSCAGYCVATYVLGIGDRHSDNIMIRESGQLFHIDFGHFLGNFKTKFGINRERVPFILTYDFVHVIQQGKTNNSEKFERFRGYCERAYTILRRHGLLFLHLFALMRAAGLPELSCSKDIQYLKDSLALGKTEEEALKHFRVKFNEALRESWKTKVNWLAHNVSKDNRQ
Reported metric: IC50 (nM)
Answers are plain numbers, in nM.

Solved cases below.
COc1ccc(-c2nn(CC3=Nc4ccc(F)cc4S(=O)(=O)N3c3c(C)cccc3C)c3ncnc(N)c23)cn1 [16d] = 823
COc1ccc(-c2nn(CC3=Nc4ccccc4S(=O)(=O)N3c3c(C)cccc3C)c3ncnc(N)c23)cn1 [15d] = 498
Cc1cccc(C)c1N1C(Cn2nc(-c3ccc4[nH]ccc4c3)c3c(N)ncnc32)=Nc2ccccc2S1(=O)=O [15a] = 217
COc1ccc(-c2nn(CC3=Nc4ccccc4S(=O)(=O)N3c3c(C)cccc3C)c3ncnc(N)c23)cc1F [15c] = 980
COc1ccc(-c2nn(CC3=Nc4ccc(F)cc4S(=O)(=O)N3c3c(C)cccc3C)c3ncnc(N)c23)cc1F [16c] = 824
COc1ccc(-c2nn(CC3=Nc4ccccc4S(=O)(=O)N3c3c(C)cccc3C)c3ncnc(N)c23)cc1OC [15b] = 266

Request: Quick check: IC50 of COc1ccc(-c2nn(CC3=Nc4ccc(F)cc4S(=O)(=O)N3c3c(C)cccc3C)c3ncnc(N)c23)cc1OC [16b] ?
Result: 518
